Species: Rattus norvegicus
Protocol Details: Open TG-GATES - Regimen: Single
Format: toxicity, organism-based, Sprague-Dawley
Design: regimen Single, gender Male, age 6 weeks
Setup Conditions: in vivo, po, 100 mg/kg, 6 h, tissue Plasma, route gavage, dose level High
Recorded CRE, one value per entry.

{"columns": ["Compound", "CRE (mg/dL)"],
 "data": [
  ["CN(C)CCN(Cc1cccs1)c1ccccn1", 0.2],
  ["CN(C)CCCN1c2ccccc2CCc2ccc(Cl)cc21 [CLOMIPRAMINE]", 0.1],
  ["CC1=C(/C=C/C(C)=C/C=C/C(C)=C/CO)C(C)(C)CCC1 [RETINOL]", 0.1],
  ["CN(C)CCCN1c2ccccc2CCc2ccccc21 [IMIPRAMINE]", 0.1]
]}
